Reference source for all entries: ChEMBL document CHEMBL1150162

# Test system: Enterococcus faecalis
# PROCEDURE DETAILS: Antibacterial activity against vancomycin-resistant Enterococcus faecalis CKU-17 expressing VanB after 48 hrs by broth microdilution method
# Assay type: functional
# EXPERIMENTAL SETUP: CKU-17, 48 h
ENDPOINT NAME: MBC (µg/mL)
Enter your answer as a number in µg/mL; do not include the unit.

For orientation, consider the following solved cases.
MOLECULE	ENDPOINT NAME	UNITS TEXT	MEASURED VALUE
CC(C)=CC[C@H](OC(=O)C=C(C)C)C1=CC(=O)c2c(O)ccc(O)c2C1=O	MBC	µg/mL	3.13
CC(=O)O[C@H](CC=C(C)C)C1=CC(=O)c2c(O)ccc(O)c2C1=O [ACETYLSHIKONIN]	MBC	µg/mL	6.25
CC1=CC(=O)c2c(O)cccc2C1=O [PLUMBAGIN]	MBC	µg/mL	50

Could you now consider this next molecule?
# MBC (molecule: CC(C)=CC[C@H](OC(=O)/C=C/c1ccccc1)C1=CC(=O)c2c(O)ccc(O)c2C1=O [CINNAMOYL ALKANNIN] ) is 100
